FYI, the data here is from PubChem BioAssay AID1963966.

- Tested on: 935938-334-R-J1-PDC spheroids with HUVEC/MSC, viability
- measurement.notes: Anticancer human tumor 935938-334-R-J1-PDC patient-derived small intestine adenocarcinoma cell line growth inhibition [PI3K]
- test.settings: second compound 3.16 µM; first compound 0.0316 µM; hits give low values
result.type: viability, T/C (%)
Please reply with the bare figure in % and do not write the unit itself.

Worked cases, viability, T/C given:
[
  {
    "molecule": "CCN1CCN(Cc2ccc(Nc3ncc(F)c(-c4cc(F)c5nc(C)n(C(C)C)c5c4)n3)nc2)CC1 + Cc1nc(NC(=O)N2CCCC2C(N)=O)sc1-c1ccnc(C(C)(C)C(F)(F)F)c1",
    "target": "935938-334-R-J1-PDC spheroids with HUVEC/MSC, viability",
    "u": "%",
    "measured.number": 42.6
  },
  {
    "molecule": "CC(Cn1ccc(-c2ccc(C#N)c(Cl)c2)n1)NC(=O)c1cc(C(C)O)[nH]n1 (stereo not drawn) + CC(Nc1ncnc2nc[nH]c12)c1cc2cccc(Cl)c2c(=O)n1-c1ccccc1",
    "target": "935938-334-R-J1-PDC spheroids with HUVEC/MSC, viability",
    "u": "%",
    "measured.number": 94.5
  }
]

Continue with the molecule presented below.
Task: Which value of viability, T/C has been reported for CNC(=O)c1ccc(N2C(=S)N(c3ccc(C#N)c(C(F)(F)F)c3)C(=O)C2(C)C)cc1F + CC(Nc1ncnc2nc[nH]c12)c1cc2cccc(Cl)c2c(=O)n1-c1ccccc1 in the records?
Output: 72.8

====

- Test system: 935938-334-R-J1-PDC spheroids with HUVEC/MSC, viability
- measurement.notes: Anticancer human tumor 935938-334-R-J1-PDC cell line growth inhibition [PI3K];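 note: compound exposure lasted seven days before viability was read; percent of vehicle DMSO treated spheroid viability so 100% = untreated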
- test.settings: second compound 3.16 µM; first compound 0.0316 µM; hits give low values
# maps each entry to its viability, T/C

Worked cases, viability, T/C given:
[
  {
    "compound": "C#Cc1c(F)ccc2cc(O)cc(-c3ncc4c(N5CC6CCC(C5)N6)nc(OCC56CCCN5CC(F)C6)nc4c3F)c12 (stereo not given) + CC(Nc1ncnc2nc[nH]c12)c1cc2cccc(Cl)c2c(=O)n1-c1ccccc1",
    "result": "82.8%"
  },
  {
    "compound": "C=CC(=O)N1CCN(c2nc(=O)n(-c3c(C)ccnc3C(C)C)c3nc(-c4c(O)cccc4F)c(F)cc23)C(C)C1 (stereo not given) + CC(Nc1ncnc2nc[nH]c12)c1cc2cccc(Cl)c2c(=O)n1-c1ccccc1",
    "result": "71.3%"
  },
  {
    "compound": "CC1(C)CCC(Nc2ncc(C(F)(F)F)c(-c3c[nH]c4c(P(C)(C)=O)c(C#N)ccc34)n2)CN1 (stereo not given) + Cc1nc(NC(=O)N2CCCC2C(N)=O)sc1-c1ccnc(C(C)(C)C(F)(F)F)c1",
    "result": "24.6%"
  },
  {
    "compound": "CC(=O)c1c(C)c2cnc(Nc3ccc(N4CCNCC4)cn3)nc2n(C2CCCC2)c1=O + Cc1nc(NC(=O)N2CCCC2C(N)=O)sc1-c1ccnc(C(C)(C)C(F)(F)F)c1",
    "result": "33.1%"
  }
]

Continue with the compound presented below.
Task: Which value of viability, T/C has been reported for C#Cc1c(F)ccc2cc(O)cc(-c3ncc4c(N5CC6CCC(C5)N6)nc(OCC56CCCN5CC(F)C6)nc4c3F)c12 (stereo not given) + Cc1nc(NC(=O)N2CCCC2C(N)=O)sc1-c1ccnc(C(C)(C)C(F)(F)F)c1 in the records?
Output: 51.5%
